biological target: Tyrosine-protein phosphatase non-receptor type 2 (Homo sapiens, UniProt P17706); test: Inhibition of TCPTP (unknown origin) assessed as decrease in p-nitrophenol production from pNPP substrate after 30 mins by HTS7000 bioassay reader analysis
Sequence (P17706 whole entry): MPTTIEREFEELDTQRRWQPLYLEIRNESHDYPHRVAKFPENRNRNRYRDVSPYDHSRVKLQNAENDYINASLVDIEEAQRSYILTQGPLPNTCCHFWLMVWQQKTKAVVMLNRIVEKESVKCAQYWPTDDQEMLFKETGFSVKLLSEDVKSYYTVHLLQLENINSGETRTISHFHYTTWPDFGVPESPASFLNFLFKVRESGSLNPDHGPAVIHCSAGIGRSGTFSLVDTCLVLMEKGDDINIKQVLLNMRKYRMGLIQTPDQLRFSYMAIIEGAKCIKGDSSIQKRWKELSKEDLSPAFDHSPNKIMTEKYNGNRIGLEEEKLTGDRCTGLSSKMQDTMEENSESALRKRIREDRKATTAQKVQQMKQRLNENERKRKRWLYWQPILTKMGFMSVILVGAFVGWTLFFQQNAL
measurementLabel: IC50 (µM)

* C[C@H]1[C@H](C)CC[C@]2(C(=O)O)CC[C@]3(C)C(=CC[C@@H]4[C@@]5(C)CC[C@H](O)C(C)(C)[C@@H]5CC[C@]43C)[C@H]12 | 2.4
* CC(C)=C1C[C@H]2[C@@H](CC[C@@]2(C)O)[C@@](C)(O)CC1=O | 15.7
* CCCCCCCCCCCCCCCC(=O)C1=C(O)[C@@H](CO)OC1=O | 5.1
* CC(C)=C1C[C@@H](O)[C@@](C)(O)CC[C@@H](O)/C(C)=C\C1=O | 36.7
* CC1=CC(=O)C(=C(C)C)C[C@H]2[C@H]1CC[C@]2(C)O | 26.8
* C=C1CC[C@H]2C(C)(C)CCC[C@]2(C)[C@H]1/C=C/C(C)=O | 9.3

(I) CC(C)=C1C[C@@H](O)[C@@](C)(O)CC[C@H](O)/C(C)=C\C1=O
(II) C=C1CC[C@H]2C(C)(C)CCC[C@]2(C)[C@H]1C/C=C(\C=O)CC(=O)O
Pick one, I or II : lowest reported IC50. Returns: label corresponding to the selected item.
II
(II: 7.4 µM, I: 62 µM)

* * *

target: UniProtKB P18031; test: Inhibition of PTP1B (unknown origin) assessed as decrease in p-nitrophenol production from pNPP substrate after 30 mins by HTS7000 bioassay reader analysis
measurementLabel: IC50 (µM)

Field: example entries. Status: answers known.
* C=C1CC[C@H]2C(C)(C)CCC[C@]2(C)[C@H]1/C=C/C(C)=O | 14.7
* CC(C)=C1C[C@@H](O)[C@@](C)(O)CC[C@@H](O)/C(C)=C\C1=O [HEYNEANONES C] | 35.2
* CC(C)=C1C[C@@H](O)[C@@](C)(O)CC[C@H](O)/C(C)=C\C1=O [HEYNEANONE A] | 42.5
* CC1=CC(=O)C(=C(C)C)C[C@@H]2[C@@](C)(O)CC[C@]12O [AERUGIDIOL] | 35.7
* CC(C)=C1C[C@H]2[C@@H](CC[C@@]2(C)O)[C@@](C)(O)CC1=O | 35.1

(P) CCCCCCCCCCCCCCCC(=O)C1=C(O)[C@@H](CO)OC1=O
(Q) CC1=CC(=O)C(=C(C)C)C[C@H]2[C@H]1CC[C@]2(C)O [PROCURCUMENOL]
(R) C=C1CC[C@H]2C(C)(C)CCC[C@]2(C)[C@H]1C/C=C(\C=O)CC(=O)O [ZERUMIN A]
Order these by IC50, descending, and give the full ranking. The labels, placed in the requested order, form the answer.
Q, R, P

* * *

In this section we review reported inhibition values for a set of molecules.
target: Tyrosine-protein phosphatase non-receptor type 1 (Homo sapiens) (UniProt P18031); assay: Inhibition of PTP1B (unknown origin) assessed as decrease in p-nitrophenol production from pNPP substrate at 25 ug/ml after 30 mins by HTS7000 bioassay reader analysis
Sequence (P18031 whole entry): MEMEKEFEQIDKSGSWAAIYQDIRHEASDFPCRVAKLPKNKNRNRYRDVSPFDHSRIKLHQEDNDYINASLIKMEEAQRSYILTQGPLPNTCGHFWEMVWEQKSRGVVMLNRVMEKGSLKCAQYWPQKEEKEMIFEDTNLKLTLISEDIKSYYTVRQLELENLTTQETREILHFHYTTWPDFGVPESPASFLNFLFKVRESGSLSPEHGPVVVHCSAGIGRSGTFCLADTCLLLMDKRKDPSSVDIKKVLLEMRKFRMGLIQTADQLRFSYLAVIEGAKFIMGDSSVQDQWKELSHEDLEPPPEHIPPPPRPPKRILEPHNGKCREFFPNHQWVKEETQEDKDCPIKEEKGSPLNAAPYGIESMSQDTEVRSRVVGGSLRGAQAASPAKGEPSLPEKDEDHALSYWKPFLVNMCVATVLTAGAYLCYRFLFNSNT

The reported inhibition of the molecule CC1=CC(=O)C(=C(C)C)C[C@H]2[C@H]1CC[C@]2(C)O was 69.3%

The reported inhibition of the molecule CC1=CC(=O)[C@@]2(C[C@]3(O)[C@@H](C)CC[C@@H]13)OC2(C)C was < 65%

The reported inhibition of the molecule CC(C)=C1C[C@@H](O)[C@](C)(O)CC[C@H](O)/C(C)=C\C1=O was < 65%

Origin of measurements: ChEMBL document CHEMBL2331519
